- test-system: Retinoic acid receptor RXR-alpha (Homo sapiens)
- test-method-notes: Transcriptional activation in CV-1 cells expressing retinoid X receptor RXR alpha
property-label: pEC50
# pEC50 is unitless: minus log10 of the molar concentration; print number only

Study these solved cases before continuing.
{"smiles-string": "CC(/C=C/C1(c2ccc3c(c2)C(C)(C)CCC3(C)C)CCCC1)=C\\C(=O)O", "pEC50": 7.29}
{"smiles-string": "CC(/C=C/C1(c2ccc3c(c2)C(C)(C)CCC3(C)C)CC1)=C\\C(=O)O", "pEC50": 7.64}

Next up:
query: # get_value(readout='pEC50', item= `CC(/C=C/C1(c2cc3c(cc2C)C(C)(C)CCC3(C)C)CCCC1)=C\C(=O)O` )
result: 5.60

----------
- test-system: Retinoic acid receptor RXR-gamma (Homo sapiens)
- Sequence (P48443 whole entry): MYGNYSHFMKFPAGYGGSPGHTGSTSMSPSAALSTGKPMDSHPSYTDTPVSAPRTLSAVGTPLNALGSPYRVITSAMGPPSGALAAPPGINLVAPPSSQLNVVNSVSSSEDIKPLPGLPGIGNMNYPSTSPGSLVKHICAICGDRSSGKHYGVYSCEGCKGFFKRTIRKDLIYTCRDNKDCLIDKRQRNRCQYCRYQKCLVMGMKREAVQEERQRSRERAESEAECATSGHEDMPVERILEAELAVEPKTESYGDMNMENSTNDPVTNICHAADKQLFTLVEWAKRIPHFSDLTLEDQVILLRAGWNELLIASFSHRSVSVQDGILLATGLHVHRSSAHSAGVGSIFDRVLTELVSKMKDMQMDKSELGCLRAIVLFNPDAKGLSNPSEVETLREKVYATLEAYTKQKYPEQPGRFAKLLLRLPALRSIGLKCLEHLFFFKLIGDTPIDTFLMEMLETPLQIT
- test-method-notes: Transcriptional activation in CV-1 cells expressing retinoid X receptor RXR gamma
Entries and their log10(EC50) values follow.
Values reflect log10 of reported EC50 (nM).

Study these solved cases before continuing.
{"smiles-string": "CC(/C=C/C1(c2ccc3c(c2)C(C)(C)CCC3(C)C)CC1)=C\\C(=O)O", "test-system": "Retinoic acid receptor RXR-gamma (Homo sapiens)", "test-result": 1.38}
{"smiles-string": "CC(/C=C/C1(c2ccc3c(c2)C(C)(C)CCC3(C)C)CCCC1)=C\\C(=O)O", "test-system": "Retinoic acid receptor RXR-gamma (Homo sapiens)", "test-result": 2.28}
{"smiles-string": "C=C(c1ccc(C(=O)O)cc1)c1ccc2c(c1)C(C)(C)CCC2(C)C", "test-system": "Retinoic acid receptor RXR-gamma (Homo sapiens)", "test-result": 2.61}
{"smiles-string": "CC(/C=C/C1(c2cc3c(cc2C)C(C)(C)CCC3(C)C)CCCC1)=C\\C(=O)O", "test-system": "Retinoic acid receptor RXR-gamma (Homo sapiens)", "test-result": 3.43}

query: # get_value(readout='log10(EC50)', item= `CC(/C=C/C1(c2cc3c(cc2C)C(C)(C)CCC3(C)C)CC1)=C\C(=O)O` )
result: 0.85

----------
- test-system: Retinoic acid receptor RXR-alpha (Homo sapiens, UniProt P19793)
- Sequence (P19793 whole entry): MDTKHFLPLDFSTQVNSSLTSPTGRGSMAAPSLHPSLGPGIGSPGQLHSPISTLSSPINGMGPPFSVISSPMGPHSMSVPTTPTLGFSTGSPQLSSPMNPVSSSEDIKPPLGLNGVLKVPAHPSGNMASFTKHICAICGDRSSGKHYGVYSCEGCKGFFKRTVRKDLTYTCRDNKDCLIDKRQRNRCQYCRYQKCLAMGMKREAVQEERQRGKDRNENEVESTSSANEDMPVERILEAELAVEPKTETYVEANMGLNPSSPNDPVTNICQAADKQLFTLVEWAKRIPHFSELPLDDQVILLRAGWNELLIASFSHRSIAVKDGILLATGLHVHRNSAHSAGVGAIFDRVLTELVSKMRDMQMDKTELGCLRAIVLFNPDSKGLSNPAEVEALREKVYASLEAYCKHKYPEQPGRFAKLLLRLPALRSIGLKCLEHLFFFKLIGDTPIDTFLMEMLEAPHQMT
Entries and their Ki values follow.
Note to self: number, then unit, no commentary.

Study these solved cases before continuing.
{"smiles-string": "CC(/C=C/C1(c2cc3c(cc2C)C(C)(C)CCC3(C)C)CC1)=C\\C(=O)O", "Ki": "4 nM"}
{"smiles-string": "CC(/C=C/C1(c2ccc3c(c2)C(C)(C)CCC3(C)C)CCCC1)=C\\C(=O)O", "Ki": "92 nM"}

Next up:
query: # get_value(readout='Ki', item= `CC(/C=C/C1(c2ccc3c(c2)C(C)(C)CCC3(C)C)CC1)=C\C(=O)O` )
result: 3 nM

----------
Entries and their EC50 values follow.
- test-system: Retinoic acid receptor RXR-beta (Homo sapiens, UniProt P28702)
- Sequence (P28702 whole entry): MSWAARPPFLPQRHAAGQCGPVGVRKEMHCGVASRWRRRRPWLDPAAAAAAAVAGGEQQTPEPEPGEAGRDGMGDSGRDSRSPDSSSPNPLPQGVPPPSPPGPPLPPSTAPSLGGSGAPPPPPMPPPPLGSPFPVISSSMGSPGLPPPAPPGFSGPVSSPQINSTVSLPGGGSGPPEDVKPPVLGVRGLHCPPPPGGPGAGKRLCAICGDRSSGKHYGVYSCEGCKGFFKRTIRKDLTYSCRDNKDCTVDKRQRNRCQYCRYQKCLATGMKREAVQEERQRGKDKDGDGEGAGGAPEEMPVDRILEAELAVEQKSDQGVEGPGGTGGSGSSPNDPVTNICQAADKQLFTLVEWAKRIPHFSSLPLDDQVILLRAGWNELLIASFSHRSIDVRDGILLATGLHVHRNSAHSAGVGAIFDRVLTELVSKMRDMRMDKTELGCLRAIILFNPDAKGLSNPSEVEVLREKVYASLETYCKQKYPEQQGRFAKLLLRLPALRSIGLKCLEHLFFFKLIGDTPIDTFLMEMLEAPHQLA
- test-method-notes: Transcriptional activation in CV-1 cells expressing retinoid X receptor RXR beta
// return numeric value only (unit: nM, not printed)

{"smiles-string": "C=C(c1ccc(C(=O)O)cc1)c1ccc2c(c1)C(C)(C)CCC2(C)C", "test-result": 486}
{"smiles-string": "CC(/C=C/C1(c2ccc3c(c2)C(C)(C)CCC3(C)C)CC1)=C\\C(=O)O", "test-result": 19}
{"smiles-string": "CC(/C=C/C1(c2cc3c(cc2C)C(C)(C)CCC3(C)C)CC1)=C\\C(=O)O", "test-result": 13}
{"smiles-string": "CC(/C=C/C1(c2ccc3c(c2)C(C)(C)CCC3(C)C)CCCC1)=C\\C(=O)O", "test-result": 127}

Next up:
query: # get_value(readout='EC50', item= `CC(/C=C/C1(c2cc3c(cc2C)C(C)(C)CCC3(C)C)CCCC1)=C\C(=O)O` )
result: 2000
